The compounds listed here are annotated with their Ki.
# ASSAYED TARGET: GABA A receptor α1β3γ2 (hα1) (Homo sapiens, UniProt P14867+P18507)
# Construct: expressed in transfected cells; host or cells: HEK293, transiently transfected; membranes
# EXPERIMENTAL PROTOCOL: [3H]flumazenil competition binding, membranes of HEK293 cells expressing human GABA A α1β3γ2
# TEST SETTINGS: [3H]flumazenil 1 nM, 1 hour at 4° C., means of two determinations; read-out: Ki[nM] hα1

COMPOUND | UNITS OF MEASURE | Ki
Cc1ccc(Cc2nc3n(n2)Cc2c(C)ncn2-c2ccc(Cl)cc2-3)cn1 [Example 185] | nM | 248
Cc1ccc2c(c1)-c1nc(Cc3cc(C)no3)nn1Cc1c(C)ncn1-2 [Example 236] | nM | 496
Cc1ccc(Cc2nc3n(n2)Cc2c(C)ncn2-c2ccc(Br)cc2-3)cn1 [Example 124] | nM | 219
Cc1noc(Cc2nc3n(n2)Cc2c(C)ncn2-c2ccc(Br)cc2-3)n1 [Example 349] | nM | 469
Cc1ncn2c1Cn1nc(Cn3ncccc3=O)nc1-c1cc(Br)ccc1-2 [Example 330] | nM | 134

====

Below, each of the molecules is paired with its reported pKi value.
# ASSAYED TARGET: GABA A receptor α1β3γ2 (hα1) (Homo sapiens, UniProt P14867+P18507)
# Construct: expressed in transfected cells; host or cells: HEK293, transiently transfected; membranes
# EXPERIMENTAL PROTOCOL: [3H]flumazenil competition binding, membranes of HEK293 cells expressing human GABA A α1β3γ2
pKi: −log10 of the molar value.

MOL SMILES | pKi
Clc1ccc2c(c1)-c1nc(Cn3nnc4ccccc43)nn1Cc1c(Cl)ncn1-2 | 7.28
Clc1ccc2c(c1)-c1nc(Cn3nccn3)nn1Cc1c(Cl)ncn1-2 | 7.20
Cc1ncn2c1Cn1nc(Cc3ccccn3)nc1-c1ccccc1-2 | 7.58
COc1ccccc1Cc1nc2n(n1)Cc1c(C)ncn1-c1ccc(Br)cc1-2 | 7.20
O=C(Cc1nc2n(n1)Cc1c(Cl)ncn1-c1ccc(Br)cc1-2)NCC1CC1 | 7.16

====

Measured Ki accompanies every entry in the list below.
# ASSAYED TARGET: GABA A receptor α1β3γ2 (hα1) (Homo sapiens, UniProt P14867+P18507)
# Construct: expressed in transfected cells; host or cells: HEK293, transiently transfected; membranes
# EXPERIMENTAL PROTOCOL: [3H]flumazenil competition binding, membranes of HEK293 cells expressing human GABA A α1β3γ2
# TEST SETTINGS: [3H]flumazenil 1 nM, 1 hour at 4° C., means of two determinations; read-out: Ki[nM] hα1
READOUT TYPE: Ki (nM)

MOL SMILES | ASSAYED TARGET | READOUT TYPE | MEASURED
Cc1ncn2c1Cn1nc(Cc3ccncc3)nc1-c1cc(Br)ccc1-2 | GABA A receptor α1β3γ2 (hα1) (Homo sapiens, UniProt P14867+P18507) | Ki | 150
Clc1ccc2c(c1)-c1nc(Cn3cc4ccccc4n3)nn1Cc1c(Cl)ncn1-2 | GABA A receptor α1β3γ2 (hα1) (Homo sapiens, UniProt P14867+P18507) | Ki | 111
Cc1cc(Cc2nc3n(n2)Cc2c(C)ncn2-c2ccc(Cl)cc2-3)ccn1 | GABA A receptor α1β3γ2 (hα1) (Homo sapiens, UniProt P14867+P18507) | Ki | 266
